# system tested: PPARα (Homo sapiens, UniProt Q07869)
# Construct: hPPARα (279aa-580aa); expressed in transfected cells; host or cells: Cos-7
# Sequence (Q07869 167-468 limits assumed): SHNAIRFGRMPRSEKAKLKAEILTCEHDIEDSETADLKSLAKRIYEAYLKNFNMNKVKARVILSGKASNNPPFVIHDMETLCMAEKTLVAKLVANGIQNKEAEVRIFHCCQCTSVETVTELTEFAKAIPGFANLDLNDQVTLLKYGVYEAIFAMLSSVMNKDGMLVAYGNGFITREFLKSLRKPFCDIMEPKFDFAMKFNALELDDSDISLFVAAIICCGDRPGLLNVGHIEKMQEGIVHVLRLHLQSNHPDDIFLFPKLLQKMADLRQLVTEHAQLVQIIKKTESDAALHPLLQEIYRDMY
# assay details: Gal4-PPARα(LBD) reporter gene agonistic activity assay in Cos-7 cells
# Format: cell-based
# test settings: Cos-7 cells, Gal4-PPARα(LBD) reporter, 16 h; 100% = GW7647 10 nM
observable: EC50 (nM)
State the answer as a number, implicitly in nM.

Some solved cases for reference:
* CC(C)(Oc1ccc(Cn2ncn(-c3ccc(OC(F)(F)F)cc3)c2=O)cc1)C(=O)O | 498
* CC(C)(Oc1ccc(Cn2ncn(-c3ccc(OC(F)(F)F)cc3)c2=O)cc1Cl)C(=O)O | 172
* CC(C)(Oc1c(Cl)cc(Cn2ncn(-c3ccc(OC(F)(F)F)cc3)c2=O)cc1Cl)C(=O)O | 7
* Cc1cc(Cn2ncn(-c3ccc(C(F)(F)F)cc3)c2=O)cc(C)c1OC(C)(C)C(=O)O | 26

The recorded EC50 for "COc1ccc(-n2cnn(Cc3cc(C)c(OC(C)(C)C(=O)O)c(C)c3)c2=O)cc1" is 144

The value of EC50 measured for the compound "Cc1ccc(-n2cnn(Cc3cc(C)c(OC(C)(C)C(=O)O)c(C)c3)c2=O)cc1" turned out to be 180

Lab book: EC50 of "[2H]C([2H])(c1cc(C)c(OC(C)(C)C(=O)O)c(C)c1)n1ncn(-c2ccc(C(F)(F)F)cc2)c1=O" noted as 10

----------
# assay details: Pharmacokinetic evaluation in mice
# Type: in vivo, C57BL/6J mice
# test settings: male, C57BL/6J, mouse, plasma, 2 mg/kg, intravenous injection, 2 mpk, read-out: Half-life T1/2 (converted)
observable: half-life (h)
Express it in h; write the number only.

Record "Cc1cc(Cn2ncn(-c3ccc(C(F)(F)F)cc3)c2=O)cc(C)c1OC(C)(C)C(=O)O" . Reported half-life: 9.53

----------
# system tested: PPARα (Homo sapiens)
# Construct: hPPARα (279aa-580aa)
# assay details: Gal4-PPARα(LBD) reporter gene agonistic activity assay in Cos-7 cells
# test settings: Cos-7 cells, Gal4-PPARα(LBD) reporter, 16 h; 100% = GW7647 10 nM
observable: pEC50
Please note pEC50 is a logarithmic value: minus log10 of concentration in mol/L. Answer with that number alone.

• CC(C)(Oc1c(F)cc(Cn2ncn(-c3ccc(OC(F)(F)F)cc3)c2=O)cc1F)C(=O)O = 6.45
• Cc1cc(Cn2ncn(-c3ccc(OC(F)(F)F)cc3)c2=O)cc(C(F)(F)F)c1OC(C)(C)C(=O)O = 7.46
• Cc1cc(Cn2ncn(-c3ccc(C(F)(F)F)cc3)c2=O)cc(Cl)c1OC(C)(C)C(=O)O = 8.05
• CC(C)(Oc1ccc(Cn2ncn(-c3ccc(OC(F)(F)F)cc3)c2=O)cc1C(F)(F)F)C(=O)O = 6.56
• Cc1cc(OCn2ncn(-c3ccc(C(F)(F)F)cc3)c2=O)cc(C)c1OC(C)(C)C(=O)O = 7.07

Summary for this compound, "CC(C)(Oc1ccc(Cn2ncn(-c3ccc(OC(F)(F)F)cc3)c2=O)cc1OC(F)(F)F)C(=O)O" : pEC50 is 6.67

----------
Let's look at some compounds and their measured EC50.
# system tested: PPARδ (Homo sapiens)
# Construct: expressed in transfected cells; host or cells: Cos-7
# Sequence (Q03181 139-441 limits assumed): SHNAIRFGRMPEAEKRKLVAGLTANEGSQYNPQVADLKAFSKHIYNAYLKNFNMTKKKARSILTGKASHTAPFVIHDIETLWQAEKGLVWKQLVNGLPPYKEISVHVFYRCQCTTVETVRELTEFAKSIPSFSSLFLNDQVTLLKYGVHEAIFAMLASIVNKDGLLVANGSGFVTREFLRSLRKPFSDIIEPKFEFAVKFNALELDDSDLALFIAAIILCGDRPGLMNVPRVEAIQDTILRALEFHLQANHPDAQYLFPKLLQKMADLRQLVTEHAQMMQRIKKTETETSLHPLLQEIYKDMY
# assay details: Gal4-PPARδ(LBD) reporter gene agonistic activity assay in Cos-7 cells
# Assay type: cell-based
# test settings: Cos-7 cells, Gal4-PPARδ(LBD) reporter, 16 h; 100% = GW501516 10 nM
Numbers only here, please. The scale is nM.

Solved entries:
• CC(C)(Oc1ccc(Cn2ncn(-c3ccc(C(F)(F)F)cc3)c2=O)cc1F)C(=O)O [Compound 123] = 664
• CCc1cc(Cn2ncn(-c3ccc(OC(F)(F)F)cc3)c2=O)cc(CC)c1OC(C)(C)C(=O)O [Compound 189] = 42
• Cc1cc(Cn2ncn(-c3ccc(F)cc3)c2=O)cc(C)c1OC(C)(C)C(=O)O [Compound 109] = 389
• Cc1cc(CCCn2ncn(-c3ccc(C(F)(F)F)cc3)c2=O)cc(C)c1OC(C)(C)C(=O)O [Compound 200] = 212
• Cc1cc(Cn2ncn(-c3ccc(C(F)(F)F)cc3)c2=O)ccc1OC(C)(C)C(=O)O [Compound 77] = 132
• CCc1cc(Cn2ncn(-c3ccc(C(F)(F)F)cc3)c2=O)cc(CC)c1OC(C)(C)C(=O)O [Compound 191] = 42
• CC(C)(Oc1c(F)cc(Cn2ncn(-c3ccc(C(F)(F)F)cc3)c2=O)cc1F)C(=O)O [Compound 127] = 586

# evaluate next
Data point: CC(C)(Oc1ccc(Cn2ncn(-c3ccc(C(F)(F)F)cc3)c2=O)cc1C(F)(F)F)C(=O)O [Compound 147] ; EC50 = 81
